The measured values listed here are drawn from patent US20130123222A1.

- System: HS578T
- RUN DESCRIPTION: 11×7 synergism hit rate
- Format: cell-based
- APPLIED CONDITIONS: Breast Cancer HS578T, combination with SR16388
RECORDED ENDPOINT: % Hit rate (%)
Provide only the numeric value, understood in %.

Prompt: Entry CC(=O)O[C@H]1C(=O)[C@@]2(C)[C@H]([C@H](OC(=O)c3ccccc3)[C@]3(O)C[C@H](OC(=O)[C@H](O)[C@@H](NC(=O)c4ccccc4)c4ccccc4)C(C)=C1C3(C)C)[C@]1(OC(C)=O)CO[C@@H]1C[C@@H]2O : reported % Hit rate = ?
Completion: 23

Prompt: Which measured % Hit rate value corresponds to CC[C@]1(O)C[C@H]2CN(CCc3c([nH]c4ccccc34)[C@@](C(=O)OC)(c3cc4c(cc3OC)N(C=O)[C@H]3[C@@](O)(C(=O)OC)[C@H](OC(C)=O)[C@]5(CC)C=CCN6CC[C@]43[C@@H]65)C2)C1 ?
Completion: 17

Prompt: Given the entry CC(=O)O[C@@]12CO[C@@H]1C[C@H](O)[C@@]1(C)C(=O)[C@H](O)C3=C(C)[C@@H](OC(=O)[C@H](O)[C@@H](NC(=O)OC(C)(C)C)c4ccccc4)C[C@@](O)([C@@H](OC(=O)c4ccccc4)[C@H]21)C3(C)C , report its measured % Hit rate.
Completion: 22

Prompt: Which % Hit rate is reported for this molecule? CC[C@]1(O)C[C@@H]2CN(CCc3c([nH]c4ccccc34)[C@@](C(=O)OC)(c3cc4c(cc3OC)N(C)[C@H]3[C@@](O)(C(=O)OC)[C@H](OC(C)=O)[C@]5(CC)C=CCN6CC[C@]43[C@@H]65)C2)C1
Completion: 8

----------
- System: MALME
- RUN DESCRIPTION: 11×7 synergism hit rate
- Assay type: cell-based
- APPLIED CONDITIONS: Melanoma MALME, combination with SR16388
Below is a list of entries, each paired with its recorded % Hit rate value.
Give the quantity in %, number only.

CHEMICAL SMILES | % Hit rate [%]
CC(=O)O[C@@]12CO[C@@H]1C[C@H](O)[C@@]1(C)C(=O)[C@H](O)C3=C(C)[C@@H](OC(=O)[C@H](O)[C@@H](NC(=O)OC(C)(C)C)c4ccccc4)C[C@@](O)([C@@H](OC(=O)c4ccccc4)[C@H]21)C3(C)C | 6

Prompt: Reported % Hit rate for CC(=O)O[C@H]1C(=O)[C@@]2(C)[C@H]([C@H](OC(=O)c3ccccc3)[C@]3(O)C[C@H](OC(=O)[C@H](O)[C@@H](NC(=O)c4ccccc4)c4ccccc4)C(C)=C1C3(C)C)[C@]1(OC(C)=O)CO[C@@H]1C[C@@H]2O : what is it?
Completion: 14

Prompt: Quick check: % Hit rate of CC[C@]1(O)C[C@@H]2CN(CCc3c([nH]c4ccccc34)[C@@](C(=O)OC)(c3cc4c(cc3OC)N(C)[C@H]3[C@@](O)(C(=O)OC)[C@H](OC(C)=O)[C@]5(CC)C=CCN6CC[C@]43[C@@H]65)C2)C1 ?
Completion: 0

Prompt: Recorded % Hit rate for CC[C@]1(O)C[C@H]2CN(CCc3c([nH]c4ccccc34)[C@@](C(=O)OC)(c3cc4c(cc3OC)N(C=O)[C@H]3[C@@](O)(C(=O)OC)[C@H](OC(C)=O)[C@]5(CC)C=CCN6CC[C@]43[C@@H]65)C2)C1 , please?
Completion: 14

----------
# key: entry, value: % Hit rate
- Tested on: ADRRES
- RUN DESCRIPTION: 11×7 synergism hit rate
- Type: cell-based
- APPLIED CONDITIONS: Ovarian Cancer ADRRES, combination with SR16388
// units = %; emit number, no label

Consider the following illustrative entries.
CHEMICAL SMILES | TESTED SYSTEM | RECORDED ENDPOINT | RESULT UNIT | RESULT
CC[C@]1(O)C[C@H]2CN(CCc3c([nH]c4ccccc34)[C@@](C(=O)OC)(c3cc4c(cc3OC)N(C=O)[C@H]3[C@@](O)(C(=O)OC)[C@H](OC(C)=O)[C@]5(CC)C=CCN6CC[C@]43[C@@H]65)C2)C1 | ADRRES | % Hit rate | % | 1
CC(=O)O[C@@]12CO[C@@H]1C[C@H](O)[C@@]1(C)C(=O)[C@H](O)C3=C(C)[C@@H](OC(=O)[C@H](O)[C@@H](NC(=O)OC(C)(C)C)c4ccccc4)C[C@@](O)([C@@H](OC(=O)c4ccccc4)[C@H]21)C3(C)C | ADRRES | % Hit rate | % | 3
CC[C@]1(O)C[C@@H]2CN(CCc3c([nH]c4ccccc34)[C@@](C(=O)OC)(c3cc4c(cc3OC)N(C)[C@H]3[C@@](O)(C(=O)OC)[C@H](OC(C)=O)[C@]5(CC)C=CCN6CC[C@]43[C@@H]65)C2)C1 | ADRRES | % Hit rate | % | 0

Prompt: # input compound: CC(=O)O[C@H]1C(=O)[C@@]2(C)[C@H]([C@H](OC(=O)c3ccccc3)[C@]3(O)C[C@H](OC(=O)[C@H](O)[C@@H](NC(=O)c4ccccc4)c4ccccc4)C(C)=C1C3(C)C)[C@]1(OC(C)=O)CO[C@@H]1C[C@@H]2O ; wanted: its % Hit rate
Completion: 1

----------
- Tested on: SF268
- RUN DESCRIPTION: 11×7 synergism hit rate
- Format: cell-based
- APPLIED CONDITIONS: CNS Cancer SF268, combination with SR16388
RECORDED ENDPOINT: % Hit rate (%)
The reply should be a number in %, with the unit left off.

Some compounds with known % Hit rate results, for comparison:
CHEMICAL SMILES | % Hit rate (%)
CC(=O)O[C@@]12CO[C@@H]1C[C@H](O)[C@@]1(C)C(=O)[C@H](O)C3=C(C)[C@@H](OC(=O)[C@H](O)[C@@H](NC(=O)OC(C)(C)C)c4ccccc4)C[C@@](O)([C@@H](OC(=O)c4ccccc4)[C@H]21)C3(C)C | 18
CC[C@]1(O)C[C@@H]2CN(CCc3c([nH]c4ccccc34)[C@@](C(=O)OC)(c3cc4c(cc3OC)N(C)[C@H]3[C@@](O)(C(=O)OC)[C@H](OC(C)=O)[C@]5(CC)C=CCN6CC[C@]43[C@@H]65)C2)C1 | 6
CC(=O)O[C@H]1C(=O)[C@@]2(C)[C@H]([C@H](OC(=O)c3ccccc3)[C@]3(O)C[C@H](OC(=O)[C@H](O)[C@@H](NC(=O)c4ccccc4)c4ccccc4)C(C)=C1C3(C)C)[C@]1(OC(C)=O)CO[C@@H]1C[C@@H]2O | 22

--- query ---
Prompt: Form field - read-out: % Hit rate; system: SF268; submitted item: CC[C@]1(O)C[C@H]2CN(CCc3c([nH]c4ccccc34)[C@@](C(=O)OC)(c3cc4c(cc3OC)N(C=O)[C@H]3[C@@](O)(C(=O)OC)[C@H](OC(C)=O)[C@]5(CC)C=CCN6CC[C@]43[C@@H]65)C2)C1
Completion: 18

----------
- System: KM12
- RUN DESCRIPTION: 11×7 synergism hit rate
- Format: cell-based
- APPLIED CONDITIONS: Colon Cancer KM12, combination with SR16388
Items are presented alongside their recorded % Hit rate.

CHEMICAL SMILES | RECORDED ENDPOINT | RESULT
CC[C@]1(O)C[C@@H]2CN(CCc3c([nH]c4ccccc34)[C@@](C(=O)OC)(c3cc4c(cc3OC)N(C)[C@H]3[C@@](O)(C(=O)OC)[C@H](OC(C)=O)[C@]5(CC)C=CCN6CC[C@]43[C@@H]65)C2)C1 | % Hit rate | 1%

Prompt: Bench note: what % Hit rate did CC[C@]1(O)C[C@H]2CN(CCc3c([nH]c4ccccc34)[C@@](C(=O)OC)(c3cc4c(cc3OC)N(C=O)[C@H]3[C@@](O)(C(=O)OC)[C@H](OC(C)=O)[C@]5(CC)C=CCN6CC[C@]43[C@@H]65)C2)C1 show?
Completion: 6%

Prompt: Which measured % Hit rate value corresponds to CC(=O)O[C@H]1C(=O)[C@@]2(C)[C@H]([C@H](OC(=O)c3ccccc3)[C@]3(O)C[C@H](OC(=O)[C@H](O)[C@@H](NC(=O)c4ccccc4)c4ccccc4)C(C)=C1C3(C)C)[C@]1(OC(C)=O)CO[C@@H]1C[C@@H]2O ?
Completion: 10%

Prompt: What % Hit rate value was documented for this compound, CC(=O)O[C@@]12CO[C@@H]1C[C@H](O)[C@@]1(C)C(=O)[C@H](O)C3=C(C)[C@@H](OC(=O)[C@H](O)[C@@H](NC(=O)OC(C)(C)C)c4ccccc4)C[C@@](O)([C@@H](OC(=O)c4ccccc4)[C@H]21)C3(C)C ?
Completion: 6%
